- testedOn: human OT7T175 (metastin receptor) (human, UniProt Q969F8 1-398)
- Sequence (Q969F8 whole entry L364H): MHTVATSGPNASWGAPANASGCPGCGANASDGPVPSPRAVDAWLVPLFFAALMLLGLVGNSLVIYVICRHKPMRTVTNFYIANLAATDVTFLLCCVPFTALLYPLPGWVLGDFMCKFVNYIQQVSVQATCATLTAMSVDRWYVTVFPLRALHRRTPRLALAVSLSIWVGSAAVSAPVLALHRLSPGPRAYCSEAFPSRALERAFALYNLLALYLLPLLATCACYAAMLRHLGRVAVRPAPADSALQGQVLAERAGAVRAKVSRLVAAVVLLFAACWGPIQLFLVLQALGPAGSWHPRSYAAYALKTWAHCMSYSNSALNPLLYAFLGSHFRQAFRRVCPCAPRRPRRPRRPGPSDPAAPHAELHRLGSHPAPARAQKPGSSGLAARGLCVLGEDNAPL
- test: cell-based or functional assay
Non-standard residues stand in square brackets, D forms with d. No end group written: not given here. *: point of attachment. GuAmb = 4-guanidinomethylbenzoyl, N=C(N)NCc1ccc(C(=O)*)cc1; indole‑3‑carbonyl = O=C(c1c[nH]c2ccccc12)*; Arg(Me) = CNC(=N)NCCC[C@H](N)C(=O)O; azaGly = NNC(=O)O
readoutKind: Ca ion level-increasing activity (FLIPR, 40 s) (EC50/MS10 EC50)
Respond numerically; units are EC50/MS10 EC50 and should not be typed.

Take a look at these entries with their results.
binder | outputUnit | dataValue
[dY]NWNTF[azaGly]L[Arg(Me)]F-NH2 (N-terminus assumed; SMILES CNC(=N)NCCC[C@H](NC(=O)[C@H](CC(C)C)NC(=O)NNC(=O)[C@H](Cc1ccccc1)NC(=O)[C@@H](NC(=O)[C@H](CC(N)=O)NC(=O)[C@H](Cc1c[nH]c2ccccc12)NC(=O)[C@H](CC(N)=O)NC(=O)[C@H](N)Cc1ccc(O)cc1)[C@@H](C)O)C(=O)N[C@@H](Cc1ccccc1)C(N)=O, also called Compound No. 297) [[D-Tyr1,Thr5,AzaGly7,Arg(Me)9]MS10] | EC50/MS10 EC50 | 5.5
GuAmb-F[azaGly]L[Arg(Me)]F-NH2 (SMILES CNC(=N)NCCC[C@H](NC(=O)[C@H](CC(C)C)NC(=O)NNC(=O)[C@H](Cc1ccccc1)NC(=O)c1ccc(CNC(=N)N)cc1)C(=O)N[C@@H](Cc1ccccc1)C(N)=O) [des(1-5)-GuAmb-[AzaGly7,Arg(Me)9]MS10] | EC50/MS10 EC50 | 4.9

Problem: Endpoint output: Ca ion level-increasing activity (FLIPR, 40 s) of {indole‑3‑carbonyl}-NSF[azaGly]L[Arg(Me)]F-NH2 (also called Compound No. 265) [des(1-3)-Indole-3-carbonyl-[AzaGly7,Arg(Me)9]MS10] . Value?
Solution: 4.4
